All figures here come from paper PMC5515887.

# ASSAYED_SYSTEM: human serum albumin (HSA) (Homo sapiens, UniProt P02768)
# Construct: purchased Sovicell, Germany
# Sequence (P02768 25-609): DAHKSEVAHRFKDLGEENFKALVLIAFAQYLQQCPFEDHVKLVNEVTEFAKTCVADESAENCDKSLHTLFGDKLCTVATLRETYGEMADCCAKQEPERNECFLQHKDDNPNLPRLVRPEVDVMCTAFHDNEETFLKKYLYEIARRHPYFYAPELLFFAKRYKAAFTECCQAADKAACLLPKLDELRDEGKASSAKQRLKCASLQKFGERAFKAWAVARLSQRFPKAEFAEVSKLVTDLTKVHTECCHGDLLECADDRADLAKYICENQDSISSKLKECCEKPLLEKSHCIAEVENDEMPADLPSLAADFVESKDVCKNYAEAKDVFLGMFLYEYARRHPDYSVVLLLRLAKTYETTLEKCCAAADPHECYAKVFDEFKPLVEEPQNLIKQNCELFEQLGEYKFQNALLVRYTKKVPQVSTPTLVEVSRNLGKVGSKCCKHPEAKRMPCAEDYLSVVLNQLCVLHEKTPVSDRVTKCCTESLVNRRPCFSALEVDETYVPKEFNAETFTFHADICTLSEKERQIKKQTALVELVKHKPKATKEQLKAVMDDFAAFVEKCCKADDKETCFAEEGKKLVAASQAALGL
# ASSAY_SUMMARY: HSA binding assay (TRANSIL XL HSA binding kit)
PARAMETER: pKd
pKd is defined as minus the log10 of a concentration measured in mol/L.

State its pKd for this compound: O=c1cc(-c2ccccc2)oc2cc(O)cc(O)c12 [chrysin]
5.71

----------
# ASSAYED_SYSTEM: human serum albumin (HSA) (Homo sapiens, UniProt P02768)
# Construct: purchased Sovicell, Germany
# ASSAY_SUMMARY: HSA binding assay (TRANSIL XL HSA binding kit)
# APPLIED_CONDITIONS: human, plasma
# Experimental: HSA binding assay was performed using TRANSIL^XL binding kit (Sovicell, Germany) according to the manufacturer’s protocol. […] The plate was then incubated on a plate shaker at 100 g for 12 minutes followed by centrifugation for 10 minutes at 750 g.
PARAMETER: fraction unbound at 12 min, 50 µM

Give reported fraction unbound at 12 min, 50 µM value for O=c1cc(-c2ccccc2)oc2cc(O)cc(O)c12 [chrysin]
0.003
